Origin of the recorded values: paper PMC5643462

The reader will find reported Hemolytic activity (% ± SD) at 2 µM values listed item by item below.
System: human red blood cells
Procedure details: Cytotoxicity: hemolysis of human red blood cells
Format: cell-based
No end group written: not given here.
Field: numeric (%). Do not append units.

substance="GFKLGRKLVKVFKWII-NH2 [Gr01]" measurement_unit=% result_value=0.00
substance="IVNHLVKLFDKGLNSIVNLR-NH2 [Tc05]" measurement_unit=% result_value=0.07

## Task Entry under review: GLLFKELQKLIRYQIFIGK-NH2 [Tc10] . Reported Hemolytic activity (% ± SD) at 2 µM?
## Result 0.00

## Task Entry under review: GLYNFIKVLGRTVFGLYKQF-NH2 [At04] . Reported Hemolytic activity (% ± SD) at 2 µM?
## Result 0.00

## Task Entry under review: GSLHGFMYKYLKTLVLRLY-NH2 [Zm01] . Reported Hemolytic activity (% ± SD) at 2 µM?
## Result 0.02

## Task Entry under review: GFKDLLKGAAKALVKTVLF-NH2 [Asc-8, Ascaphin-8, reference compound] . Reported Hemolytic activity (% ± SD) at 2 µM?
## Result 0.32

## Task Entry under review: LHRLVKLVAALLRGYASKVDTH [Tc08] . Reported Hemolytic activity (% ± SD) at 2 µM?
## Result 0.11

* * *

Tested on: human red blood cells
Procedure details: Cytotoxicity: hemolysis of human red blood cells
Type: cell-based
No end group written: not given here.
The reader will find reported Hemolytic activity (% ± SD) at 1 µM values listed item by item below.
Field: numeric (%). Do not append units.

substance="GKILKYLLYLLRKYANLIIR-NH2 [Tc02]" result_value=0.00
substance="GSLHGFMYKYLKTLVLRLY-NH2 [Zm01]" result_value=0.00
substance="GLLFKELQKLIRYQIFIGK-NH2 [Tc10]" result_value=0.00

## Task # returns recorded Hemolytic activity (% ± SD) at 1 µM (system: human red blood cells) for GSLHGFMYKYLKNMVLNLF-NH2 [Tc06]
## Result 0.00

## Task # returns recorded Hemolytic activity (% ± SD) at 1 µM (system: human red blood cells) for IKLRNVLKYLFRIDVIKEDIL-NH2 [Tc03]
## Result 0.03

## Task # returns recorded Hemolytic activity (% ± SD) at 1 µM (system: human red blood cells) for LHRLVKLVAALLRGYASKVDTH [Tc08]
## Result 0.11

## Task # returns recorded Hemolytic activity (% ± SD) at 1 µM (system: human red blood cells) for ANRLLEAYKMLLKFLGNLR-NH2 [Gr02]
## Result 0.01

## Task # returns recorded Hemolytic activity (% ± SD) at 1 µM (system: human red blood cells) for KVLSKVHTLLKAVLAL-NH2 [At02]
## Result 0.04

## Task # returns recorded Hemolytic activity (% ± SD) at 1 µM (system: human red blood cells) for GFKLGRKLVKVFKWII-NH2 [Gr01]
## Result 0.09

## Task # returns recorded Hemolytic activity (% ± SD) at 1 µM (system: human red blood cells) for GLWSTIKQKGKEAAIAAAKAAGQAALGAL-NH2 [DS01, Dermaseptin DS01, reference compound]
## Result 0.00

* * *

System: human red blood cells
Procedure details: Cytotoxicity: hemolysis of human red blood cells
Assay type: cell-based
No end group written: not given here.
Cut-off 4% on Hemolytic activity (% ± SD) at 64 µM: below means class 1, at or above means class 0.

Answered cases to consult:
substance="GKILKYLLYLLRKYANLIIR-NH2 [Tc02]" target_or_test_system="human red blood cells" classification="class 0"
substance="GSLHGFMYKYLKNMVLTLF-NH2 [At01]" target_or_test_system="human red blood cells" classification="class 0"
substance="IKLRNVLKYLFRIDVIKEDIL-NH2 [Tc03]" target_or_test_system="human red blood cells" classification="class 1"
substance="GAKLAKKQVRALGKFFSF-NH2 [At03]" target_or_test_system="human red blood cells" classification="class 1"

Here is another substance to look at.
## Task Criterion: Hemolytic activity (% ± SD) at 64 µM strictly below 4%. Is it met by ANRLLEAYKMLLKFLGNLR-NH2 [Gr02] ?
## Result class 0
